- Assay text: soluble on expression in E. coli; label from the status in PepcDB or PDB records
Experimental readout: soluble on expression in E. coli

Some entries whose results are on file:
DGRITGMIQVAIDVTEQVVARKKLEESESRFRALVNASSDVVYRMNADWTVMRELEGRDFLTPAGTAMADWVETYTYREDRALVKATAAAAIEGKRIFELEHRVLKADGTIGWTFSRAIPILDEQ    not soluble
MSLEISNRLKSISEVMDRCEIAADIGTDHAYLPIYLIKNNLCKRFIASDVNAGPLKKAINNINKYKLEDKIECRLGSGLNVLKLEEVDVVVIAGMGGNLIRDIIEERLDIFKKLKYAVLQPVQNPEILREYLIKRGFNIIEEQLCIDESKYYEIIKVCYDSKIEDKDDVYYEIGDKLIDMKHPLLKEYINYKIRKYDKIYKNISEESLNALSRKNELSIKIRKLKELLSCLEGHHHHHH    soluble
MMNALELQALRRIFDMTIEECTIYITQDNNSATWQRWEAGDIPISPEIIARLKEMKARRQRRINAIVDKINNRIGNNTMRYFPDLSSFQSIYTEGDFIEWKIYQSVAAELFAHDLERLC    soluble
EVSTTQNDTLKVMTHNVYMLSTNLYPNWGQTERADLIGAADYIKNQDVVILNEVFDNSASDRLLGNLKKEYPNQTAVLGRSSGSEWDKTLGNYSSSTPEDGGVAIVSKWPIAEKIQYVFAKGCGPDNLSNKGFVYTKIKKNDRFVHVIGTHLQAEDSMCGKTSPASVRTNQLKEIQDFIKNKNIPNNEYVLIGGDMNVNKINAENNNDSEYASMFKTLNASVPSYTGHTATWDATTNSIAKYNFPDSPAEYLDYIIASKDHANPSYIENKVLQPKSPQWTVTSWFQKYTYNDYSDHYPVEATISMK    soluble
MTSYEEETDYRNVPRELLDNNIPMGRGMIKWAPFATLPEQFETIQQYIIDQNKITRPVLSDDQLAELNIRLHEALQYAQPVEVKFYNNGFVDSVRLTIYRIDAINYEIDGYVYNQQQRQKISIFDILDIVLLP    not soluble

Exercise: Record request: soluble on expression in E. coli value, item MTSLQRKGPQTRILSTGEEEKLKRDQALVSAFKQQKLEKEAQKNWDLFYKRNSTNFFKDRHWTTREFEELRSCREYEGQKLTLLEAGCGVGNCLFPLLEEDSNIFAYACDFSPRAVDYVKQHPLYNAERCKVFQCDLTRDDLLDHIPPESVDAVTLIFVLSAVHPEKMHLVLLNVYKVLKPGRSVLFRDYGLNDHAMLRFKAGSKLGENFYVRQDGTRSYFFTDEFLAKLFVDAGYEEVVNEYVFRETVNKKEGLCVPRVFLQSKFRKPPKDPAPTTDSASLLRKEF
Key: not soluble

Exercise: Repeat with MDPFGTYKTAISARATDKAILKKSQDGGIISASYIYGLENGLLDGVIVANTEDGFKAAPKIATTPEEVLSAAGTKYTVSPNVSVLKDAVREYALEKVGIVGTPCQVRAIRKLMKYPMGFRHTDSKIALVMGIFCMENFPYEGMKAIVEQYAGIRMNDVLKTDIGKGKFWVYSKSGDVKAVPLKDTHMYEQKSCHVCMDYTAELADISTGSVGSPDGWSTIFVRTAKGEEYLNKMVEAGALETKPIDDVKPGLDLVQKLALQKKEKNDKEIAHRKEIGLPVPYLEHHHHHH
Key: not soluble

Exercise: Would you kindly repeat that for MTSENSESQDIWLTDEQQDVWLDVWTMRIGLPARLDAQLKEAAGVSHFEYFTMAQISMAPEHRVRMSELAELSDMTLSHLSRVVTRLEKAGWVKRVPDPDDGRATVAVLTDSGWEKVKATAPGHVKEVRRLVFDDLTPEELKVMGTAMKKIVNRLDMSNRLPRV ?
Key: not soluble

Exercise: Now consider MLSVDYENFDLISYLYNLVRQIPDGMVSTYGDLAEALGDPVAARSVGFMLSINKEPDYIPCYKVVPHDGSVGNYTHPLGSAEKMRRLIRDGITITNGHISNFEKVRFREFKTDYPLRKLRELQFKIGRLYDDRNDYSLDTIAAFDVSYKETRGYASKVVYNKGKIGAYVYSSDSMFPYIPGYLAFKEFKFIRALYDNETMILIDGNGILHPRFAGLATHAGVSLKTASIGIAKHLINCTVKGSDLLISGVVAGKMIGHHTIVSPGNRINVEEAGRLIEQREGKEMRSLLRLAHNLTRLHIETNGNIARYDFSTRNTAIQSSLEHHHHHH and answer again.
Key: not soluble

Exercise: Okay, and MNTHYVGPVLYTPKENVSEKLLKLFDADQPIIFCYTARFYDNVGESGKAIFDNMIKIADKIDASIIISTGNKKDELLALDIASKELKSGKVSIVDYVPLDMAYEKSDLVIHHGGHGSCLAQFYYGVPSVIIPTHTEREYNARMCEKLHVGKMLPRRELNSANLKNCINDVLNDITYKKSVRDWKEKVSGLEHHHHHH ?
Key: not soluble

Exercise: MSLSKILPVVTACLLATTMGASASSIPEKASVCSGCHGQDGMGQPNIAPMIAGLNANYLNTQIELFLSGERQNVVMQGMAKELSDPAVRKEVMNYFANLPSYEFTNPEQRGDQADIRNPYRKLIFQGDWDRNIPACATCHGASGMGVDKFPRLASQHADYLKTQLMAWKIGTRSGDPLNMMGTIAKNLTDEEIENLSYYFASLRYEGHHHHHH , same question.
Key: not soluble

Exercise: Likewise for GPGSMSYYCSGGHCLKYATPGREPPDPQLFPHYMQNAQNLWLHFSEWWPHGDGGSCPAPPTKGVVFIVPGLGEHTGRYDSVALRLNQEGYVVFSMDNQGTGGSEGERLYVECFTHFVDDVCAFVVFIQTRYAALKSQPTFLMGHSMGGLIATLVAQRDASGFRGVVLSGPALGLSKPVPCFMRSLAHFLSQWFPKLPVRKLDPDLVSYNTPVVQLVKQDPFYSNVTLRARFVDEMLIAQDRAAEAAGTSQFPFLIVHGEEDQLCSLETSKSFFKSALSEDKNLVSYPRAGHEVLTELCRAEVMAEVIKFIDERAR ?
Key: not soluble
